From: patent US9688764B2

System Tested: T1, PRLR-expressing cells (T47D) (Homo sapiens, UniProt P16471)
T1 construct: a native PRLR expressing cell line (T47D); endogenous in cells; host or cells: T47D
T1 sequence (P16471 25-622): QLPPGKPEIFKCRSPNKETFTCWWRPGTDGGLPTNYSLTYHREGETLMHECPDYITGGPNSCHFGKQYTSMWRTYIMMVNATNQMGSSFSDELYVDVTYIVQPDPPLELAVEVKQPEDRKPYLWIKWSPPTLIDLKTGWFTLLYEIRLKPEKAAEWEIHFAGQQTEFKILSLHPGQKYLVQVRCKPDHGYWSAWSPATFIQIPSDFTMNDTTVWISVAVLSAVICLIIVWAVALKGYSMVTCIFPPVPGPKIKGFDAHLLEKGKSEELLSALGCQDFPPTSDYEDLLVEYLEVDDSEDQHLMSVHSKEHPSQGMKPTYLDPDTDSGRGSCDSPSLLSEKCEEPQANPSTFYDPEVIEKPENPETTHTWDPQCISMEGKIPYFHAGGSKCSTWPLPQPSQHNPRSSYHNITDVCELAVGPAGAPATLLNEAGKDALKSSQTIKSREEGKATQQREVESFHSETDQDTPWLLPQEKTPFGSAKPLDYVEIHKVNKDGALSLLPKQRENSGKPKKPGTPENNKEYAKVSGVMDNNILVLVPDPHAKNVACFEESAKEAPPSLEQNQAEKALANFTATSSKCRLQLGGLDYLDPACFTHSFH
Assay Overview: Antibody binding and internalization by PRLR-expressing cells (imaging)
Assay type: cell-based
Cond: [mAb] (0.67 nM), alexa488 intensity in intracellular vesicles, 1 h at 37° C.
Attribute Measured: % Internalization relative to Control I
Give the figure together with its unit, number first.

Entry H1H6975N: human IgG1 Fc form of H2M6975N; anti-PRLR; HCVR/LCVR SEQ ID NOs 370/378 (antibody, V domains shown, human IgG1 Fc) VH: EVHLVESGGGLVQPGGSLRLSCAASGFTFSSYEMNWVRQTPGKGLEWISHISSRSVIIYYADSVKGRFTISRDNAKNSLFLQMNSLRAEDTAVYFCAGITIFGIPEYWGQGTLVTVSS VL: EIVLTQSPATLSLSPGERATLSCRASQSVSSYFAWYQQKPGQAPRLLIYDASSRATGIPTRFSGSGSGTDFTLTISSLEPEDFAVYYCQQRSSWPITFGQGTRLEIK , % Internalization relative to Control I reported as 214.2%
